Here the recorded GI50 is given for each entry.
# assayed_system: EXON 20 Insertion(NPG) Ba/F3 Cell (Homo sapiens, UniProt P00533, INS772GNP, cells depend on it)
# Sequence (P00533 with tags, fused parts or gaps INS772GNP): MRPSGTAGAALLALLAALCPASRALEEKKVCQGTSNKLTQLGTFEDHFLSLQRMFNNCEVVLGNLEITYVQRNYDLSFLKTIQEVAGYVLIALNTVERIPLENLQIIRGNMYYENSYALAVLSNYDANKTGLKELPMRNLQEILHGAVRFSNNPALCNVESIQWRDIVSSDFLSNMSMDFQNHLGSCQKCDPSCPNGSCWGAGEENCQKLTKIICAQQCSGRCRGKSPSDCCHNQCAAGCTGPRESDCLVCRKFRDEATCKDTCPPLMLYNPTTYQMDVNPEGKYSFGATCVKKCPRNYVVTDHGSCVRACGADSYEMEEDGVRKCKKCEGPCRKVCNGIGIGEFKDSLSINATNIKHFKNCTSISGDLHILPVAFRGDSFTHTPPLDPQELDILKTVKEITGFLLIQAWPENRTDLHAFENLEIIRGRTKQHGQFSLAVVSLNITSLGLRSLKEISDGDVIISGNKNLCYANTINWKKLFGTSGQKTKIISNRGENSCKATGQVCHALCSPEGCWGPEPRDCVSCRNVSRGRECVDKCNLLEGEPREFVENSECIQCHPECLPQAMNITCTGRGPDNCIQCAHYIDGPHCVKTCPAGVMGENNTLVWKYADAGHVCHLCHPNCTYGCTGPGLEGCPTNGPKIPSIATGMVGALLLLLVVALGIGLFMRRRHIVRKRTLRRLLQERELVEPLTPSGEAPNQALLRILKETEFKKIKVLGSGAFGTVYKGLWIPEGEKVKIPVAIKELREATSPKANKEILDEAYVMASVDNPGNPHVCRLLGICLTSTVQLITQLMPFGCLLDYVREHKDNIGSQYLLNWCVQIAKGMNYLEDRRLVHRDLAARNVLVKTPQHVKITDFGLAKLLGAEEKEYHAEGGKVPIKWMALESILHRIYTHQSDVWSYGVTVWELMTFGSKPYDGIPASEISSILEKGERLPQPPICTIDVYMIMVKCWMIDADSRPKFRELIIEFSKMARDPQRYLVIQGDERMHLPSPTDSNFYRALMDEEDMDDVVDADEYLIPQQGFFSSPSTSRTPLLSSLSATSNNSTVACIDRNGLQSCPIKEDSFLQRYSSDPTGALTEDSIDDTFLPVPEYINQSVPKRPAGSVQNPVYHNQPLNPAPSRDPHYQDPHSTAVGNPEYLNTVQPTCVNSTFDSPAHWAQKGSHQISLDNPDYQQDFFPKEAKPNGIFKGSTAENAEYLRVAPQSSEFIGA
# assay_text: Measurement of cancer cell growth inhibitory effect (MTT assay)
# Type: cell-based, Murine
# study_conditions: Ba/F3 cells expressing EGFR with NPG added at D770_N771, 72 hours treatment, read at 595 nm, read-out: EXON 20 Insertion(NPG) Ba/F3 Cell(IC50)

Recorded GI50, per entry:
C=CC(=O)Nc1cc(Nc2ncc(Cl)c(Nc3ccccc3-n3cccn3)n2)c(OC)cc1N(C)CCN(C)C; < 25 nM
C=CC(=O)Nc1cc(Nc2ncc(C)c(Nc3ccccc3-n3cccn3)n2)c(OC)cc1N(C)CCN(C)C; 25 to 50 nM
C=CC(=O)Nc1cc(Nc2ncc(C(=O)OC(C)C)c(Nc3ccccc3-c3ccn(C)n3)n2)c(OC)cc1N(C)CCN(C)C; < 25 nM
C=CC(=O)Nc1cc(Nc2ncc(C(=O)OC)c(Nc3ccccc3-c3ccn(C)n3)n2)c(OC)cc1N(C)CCN(C)C; 25 to 50 nM
C=CC(=O)Nc1cc(Nc2cc(Nc3ccccc3-c3ccn(C)n3)ncn2)c(OC)cc1N(C)CCN(C)C; < 25 nM
C=CC(=O)Nc1cc(Nc2ncc(Cl)c(Nc3ccccc3-c3ccn(C)n3)n2)c(OC)cc1N1CC[C@@H](N(C)C)C1; 25 to 50 nM
C=CC(=O)Nc1cc(Nc2ncc(C(=O)OCC)c(Nc3ccccc3-c3ccn(C)n3)n2)c(OC)cc1N(C)CCN(C)C; 25 to 50 nM
C=CC(=O)Nc1cc(Nc2ncc(C(=O)OC(C)C)c(Nc3ccccc3-c3ccn(C)n3)n2)c(OC)cc1N1CC[C@@H](N(C)C)C1; 25 to 50 nM
C=CC(=O)Nc1cc(Nc2ncc(Cl)c(Nc3ccccc3-c3ccn(C)n3)n2)c(OC)cc1N(C)[C@@H]1CCN(C)C1; 25 to 50 nM
C=CC(=O)Nc1cc(Nc2cc(Nc3ccccc3-c3ccn(C)n3)ncn2)c(OCC(F)(F)F)cc1N(C)CCN(C)C; < 25 nM

GI50 for `C=CC(=O)Nc1cc(Nc2ncc(C#N)c(Nc3ccccc3-c3ccn(C)n3)n2)c(OC)cc1N(C)CCN(C)C` is 25 to 50 nM

GI50 for `C=CC(=O)Nc1cc(Nc2ncc(C(=O)OC)c(Nc3ccccc3-n3cccn3)n2)c(OC)cc1N(C)CCN(C)C` is 25 to 50 nM

GI50 for `C=CC(=O)Nc1cc(Nc2ncc(Cl)c(Nc3ccccc3-c3ccn(C)n3)n2)c(OC)cc1N1CC[C@H](N(C)C)C1` is 25 to 50 nM

GI50 for `C=CC(=O)Nc1cc(Nc2cc(Nc3ccccc3-c3ccn(C)n3)ncn2)c(OC)cc1N1CCN(C)CC1` is 25 to 50 nM
